Task for the reader: assign each of the following sequences its reported gcPBM binding intensity (ln).
# Tested on: PfAP2-EXP AP2 domain (GST-tagged)
# assayOverview: gcPBM binding intensity (ln(normalized median fluorescence intensity)); higher = stronger DNA binding
Over roughly 25,000 sequences, “ln(normalized median fluorescence intensity)” has its median near 8.6; the highest 2% begin near 10. Many of the other results were omitted from the sample, so the highest values are more common in it than they were.
One number for each entry.

TACAAGCCCAATTCAAGTACATATATATATATATAT [XGTACX_site5569]	10.2
TAATTTAAAAATTCCTGTACTCAGTTTTTTCTATTT [XGTACX_site4961]	8.48
TTTGAGATGTGGTGTACACAAAATTAGGTACACATC [CACACA_site5773]	8.92
AAAAAAAAAAATATCACACACACATAAATATAAACC [CACACA_site2278]	8.77
TTTTTAAAAATAACAGAAAAGAATTACAGATTTTTT [XGTACX_negctrl_site472]	8.34

For each of the items listed, what is its gcPBM binding intensity (ln)?
1. ATATATTTTAATTGTTGTACATATTAAATAAATAGG [XGTACX_site2311]
2. TTATATTTATAAAGGTGTACCTTAAAATGATTTTAC [XGTACX_site3774]
3. TTGTTCATCTTTTTTTTTTTTTTTTTTTTTTAAATC [CACACA_negctrl_site191]

output:
1: 8.47; 2: 8.19; 3: 8.18

Data origin: the supplement of paper PMC11417369
